target: Serine/threonine-protein kinase Nek7 (Homo sapiens); conditions: at 0.1 µM;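 note: figures are averaged percent inhibition of NEK7 kinase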
Please go through the items and note down their inhibition.
Your answer is read as %, so omit the unit and give the number.

Entry CCCN1CCCC(c2ccc(Nc3nc(Nc4cc(F)ccc4C(N)=O)c4cc[nH]c4n3)c(OC)c2)C1 (stereo not given) ; inhibition = 6.42

// inhibition value for NC(=O)c1sc(-n2cnc3ccccc32)cc1OCc1ccccc1Br : 3.33

Per the record, C[C@@H](Oc1cc(-n2cnc3ccc(OCC4CCN(C)CC4)cc32)sc1C(N)=O)c1ccccc1C(F)(F)F has inhibition of -2.74

Record NC(=O)c1cccc(Nc2nccc(Nc3cccc(F)c3)n2)c1 . Reported inhibition: 2.07

Recorded inhibition (molecule COc1cccc(-n2nc(C)c3c(N/N=C(\C)c4ccncc4)ncnc32)c1 ): 0.76

Sample O=C1Nc2ccccc2/C1=C/Nc1ccc2[nH]c(=O)[nH]c2c1 ; inhibition observed: 6.08

Lab note: measured inhibition of O=C(Nc1ccc(Oc2ccc3[nH]c(NC(=O)c4ccco4)nc3c2)cc1)Nc1cc(C(F)(F)F)ccc1F was 0.83

For Cc1ccc(NC(=O)CC2CC2)cc1-c1ccc(C(=O)NCC2CC2)cc1 the molecule record lists inhibition as 4.87

The measured inhibition associated with CS(=O)(=O)CCNCc1nc(-c2ccc3ncnc(Nc4ccc(OCc5cccc(C(F)(F)F)c5)cc4)c3c2)cs1 reads 1.6

Briefly, inhibition measured for NS(=O)(=O)c1cccc(Nc2cc(-c3ccc(F)cc3)n[nH]2)c1 : 4.33
